Target: Integrin alpha-4/beta-1 (Homo sapiens, UniProt P05556+P13612)
Sequence (P05556 whole entry): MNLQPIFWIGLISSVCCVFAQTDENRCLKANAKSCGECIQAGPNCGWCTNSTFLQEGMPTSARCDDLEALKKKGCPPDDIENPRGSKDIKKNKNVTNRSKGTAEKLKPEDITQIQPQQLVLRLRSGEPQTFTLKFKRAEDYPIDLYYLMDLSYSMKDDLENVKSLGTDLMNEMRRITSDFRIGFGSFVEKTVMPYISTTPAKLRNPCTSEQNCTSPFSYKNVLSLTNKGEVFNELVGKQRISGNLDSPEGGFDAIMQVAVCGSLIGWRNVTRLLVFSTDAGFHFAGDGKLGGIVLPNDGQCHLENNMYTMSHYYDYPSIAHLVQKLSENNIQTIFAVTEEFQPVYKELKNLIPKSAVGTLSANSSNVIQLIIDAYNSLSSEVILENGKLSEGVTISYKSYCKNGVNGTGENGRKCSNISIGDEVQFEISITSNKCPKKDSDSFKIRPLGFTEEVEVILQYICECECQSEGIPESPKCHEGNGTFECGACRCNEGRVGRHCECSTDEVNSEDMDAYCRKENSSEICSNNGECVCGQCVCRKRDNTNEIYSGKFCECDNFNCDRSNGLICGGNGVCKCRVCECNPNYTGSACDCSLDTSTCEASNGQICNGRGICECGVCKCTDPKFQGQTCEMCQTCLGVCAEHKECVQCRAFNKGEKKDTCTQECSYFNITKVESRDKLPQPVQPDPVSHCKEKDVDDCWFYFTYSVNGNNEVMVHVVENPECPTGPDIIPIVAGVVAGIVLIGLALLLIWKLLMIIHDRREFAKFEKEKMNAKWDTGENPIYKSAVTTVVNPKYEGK
Sequence (P13612 whole entry): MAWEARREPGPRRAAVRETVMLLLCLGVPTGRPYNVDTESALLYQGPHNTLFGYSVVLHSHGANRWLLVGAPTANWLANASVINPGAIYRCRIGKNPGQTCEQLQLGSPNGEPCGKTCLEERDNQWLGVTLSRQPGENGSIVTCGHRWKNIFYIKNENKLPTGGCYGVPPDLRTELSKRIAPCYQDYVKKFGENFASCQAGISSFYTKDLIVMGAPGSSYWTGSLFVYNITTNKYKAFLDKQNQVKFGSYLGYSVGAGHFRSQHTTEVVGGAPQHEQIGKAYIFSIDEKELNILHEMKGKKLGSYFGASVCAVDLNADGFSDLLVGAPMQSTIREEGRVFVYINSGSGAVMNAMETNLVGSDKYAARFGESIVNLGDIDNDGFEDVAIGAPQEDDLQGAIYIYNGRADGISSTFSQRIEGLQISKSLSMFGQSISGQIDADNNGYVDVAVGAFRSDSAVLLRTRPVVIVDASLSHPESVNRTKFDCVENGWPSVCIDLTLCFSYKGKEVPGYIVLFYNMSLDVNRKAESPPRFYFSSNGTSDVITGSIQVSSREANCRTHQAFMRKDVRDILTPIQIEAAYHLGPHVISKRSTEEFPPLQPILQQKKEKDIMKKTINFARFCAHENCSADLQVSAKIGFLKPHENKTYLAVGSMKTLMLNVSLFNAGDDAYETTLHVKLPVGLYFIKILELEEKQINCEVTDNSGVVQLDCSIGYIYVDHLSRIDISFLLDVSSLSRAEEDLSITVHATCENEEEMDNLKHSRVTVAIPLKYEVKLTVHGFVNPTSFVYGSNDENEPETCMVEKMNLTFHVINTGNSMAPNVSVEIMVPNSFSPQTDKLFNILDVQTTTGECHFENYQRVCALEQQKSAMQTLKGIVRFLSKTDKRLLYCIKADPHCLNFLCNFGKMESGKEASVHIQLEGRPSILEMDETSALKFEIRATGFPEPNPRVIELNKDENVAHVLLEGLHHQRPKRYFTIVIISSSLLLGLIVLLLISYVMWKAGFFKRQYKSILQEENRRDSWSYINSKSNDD
Experiment: Inhibition of fluorescently labeled alpha4-beta1 positive Ramos cells binding to immobilized VCAM-1.
Type: cell-based
Where a SMILES comes first, the peptide text is derived from it. Bridges are numbered along the chain shown (N, C = ends). The star is where a group is joined. Phenylacetyl(4-OMe) = COc1ccc(CC(=O)*)cc1; 1Naphthoyl = O=C(c1cccc2ccccc12)*
Overview of reported pIC50 across a group of compounds:
Lab note: report pIC50 as minus log10 of the concentration in molar units, number only.

Write down pIC50 measured for item O=C(N[C@H]1CSSC[C@@H](C(=O)O)NC(=O)[C@@H]2CCCN2C(=O)[C@H](CO)NC1=O)c1cccc2ccccc12 (1Naphthoyl-CSPC-OH; disulfide 1-4)
5.20

Write down pIC50 measured for item N[C@@H](Cc1ccccc1)C(=O)N[C@H]1CSSC[C@@H](C(=O)O)NC(=O)[C@@H]2CCCN2C(=O)[C@H](CO)NC1=O (H-FCSPC-OH; disulfide 2-5)
4.82

Write down pIC50 measured for item COc1ccc(CC(=O)N[C@H]2CSSC[C@@H](C(=O)O)NC(=O)[C@@H]3CCCN3C(=O)[C@H](CO)NC2=O)cc1 ({Phenylacetyl(4-OMe)}-CSPC-OH; disulfide 1-4)
5.52

Write down pIC50 measured for item NCCCC[C@H](NC(=O)[C@@H](N)Cc1ccc(O)cc1)C(=O)N[C@H]1CSSC[C@@H](C(=O)O)NC(=O)[C@@H]2CCCN2C(=O)[C@H](CC(=O)O)NC1=O (H-YKCDPC-OH; disulfide 3-6)
5.30

Write down pIC50 measured for item `N[C@@H](Cc1ccc(O)cc1)C(=O)N[C@H]1CSSC[C@@H](C(=O)O)NC(=O)C2CCC(CC2)CNC1=O`
4.72

Write down pIC50 measured for item C[C@@H]1NC(=O)[C@@H](NC(=O)[C@@H](N)Cc2ccc(O)cc2)CSSC[C@@H](C(=O)O)NC1=O (H-YCAC-OH; disulfide 2-4)
3.46

Write down pIC50 measured for item N[C@@H](Cc1ccc(O)cc1)C(=O)N[C@H]1CSSC[C@@H](C(=O)O)NC(=O)CNC1=O (H-YCGC-OH; disulfide 2-4)
3.60

* * *

Biological target: Integrin alpha-4/beta-1 (Homo sapiens, UniProt P05556+P13612)
Assay: Inhibition of purified alpha-4 beta-1 binding to VCAM-1 was determined in an ELISA assay.
Type: protein-complex assay
pIC50: −log10 of the molar value. *1 amine or outer side, *2 acyl side, *3 side chain or, on linkers, in order; H or OH if unused. Where a SMILES comes first, the peptide text is derived from it. Bridges are numbered along the chain shown (N, C = ends). [ ]: non-standard residue; d: D form. X3 = O=C([C@H]1[C@H](c2ccc(O)cc2)CCN1[*:1])[*:2]; mTyr = N[C@@H](Cc1cccc(O)c1)C(=O)O; Sar = CNCC(=O)O
Assign class by pIC50: not lower than 7 means t; lower than 7 means f.

[
  {
    "Molecule": "CC(=O)N[C@@H](Cc1ccc(O)cc1)C(=O)N[C@H]1CSSC[C@@H](C(=O)O)NC(=O)CN(C)C(=O)[C@H](C)NC1=O (Ac-YCA[Sar]C-OH; disulfide 2-5)",
    "Target Under Test": "Integrin alpha-4/beta-1 (Homo sapiens, UniProt P05556+P13612)",
    "Class Name": "f"
  },
  {
    "Molecule": "CC(=O)N1CC[C@@H](c2ccc(O)cc2)[C@@H]1C(=O)N[C@H]1CSSC[C@@H](C(=O)O)NC(=O)[C@@H]2CCCN2C(=O)[C@H](CO)NC1=O (Ac-[X3]CSPC-OH; disulfide 2-5)",
    "Target Under Test": "Integrin alpha-4/beta-1 (Homo sapiens, UniProt P05556+P13612)",
    "Class Name": "t"
  },
  {
    "Molecule": "CC1CNC(=O)[C@@H](NC(=O)[C@@H](N)Cc2ccc(O)cc2)CSSC[C@@H](C(=O)O)NC1=O (stereo partly specified)",
    "Target Under Test": "Integrin alpha-4/beta-1 (Homo sapiens, UniProt P05556+P13612)",
    "Class Name": "t"
  },
  {
    "Molecule": "N[C@@H](Cc1cccc(O)c1)C(=O)N[C@H]1CSSC[C@@H](C(=O)O)NC(=O)[C@@H]2CCCN2C(=O)[C@H](CO)NC1=O (H-[mTyr]CSPC-OH; disulfide 2-5)",
    "Target Under Test": "Integrin alpha-4/beta-1 (Homo sapiens, UniProt P05556+P13612)",
    "Class Name": "f"
  },
  {
    "Molecule": "CC(=O)N[C@@H](Cc1ccc(O)cc1)C(=O)N[C@H]1CSSC[C@@H](C(=O)O)NC(=O)[C@@H]2CCCN2C(=O)[C@H](CO)NC1=O (Ac-YCSPC-OH; disulfide 2-5)",
    "Target Under Test": "Integrin alpha-4/beta-1 (Homo sapiens, UniProt P05556+P13612)",
    "Class Name": "t"
  }
]

Query molecule follows.
Could you verify whether the entry N=C(N)NCCC[C@H](NC(=O)[C@@H](N)Cc1ccc(O)cc1)C(=O)N[C@H]1CSSC[C@@H](C(=O)O)NC(=O)[C@@H]2CCCN2C(=O)[C@H](CCC(N)=O)NC1=O (H-YRCQPC-OH; disulfide 3-6) shows pIC50 of no less than 7?
t

// provenance: ChEMBL document CHEMBL1130186
